# IC50 per record follows
# Measurement Description: Cytotoxicity against human 289L cells after 4 days by propidium iodide assay
# Format: functional, cell-based
# Details: 96 h
Observable: IC50 (µM)

Compound: CNC1=CC(=O)c2cc(C)ncc2C1=O
Observable: IC50
Reported Result: 3.04
//
Compound: CNC1=C(Cl)C(=O)c2cc(C)ncc2C1=O
Observable: IC50
Reported Result: 5.96
//
Compound: CNC1=CC(=O)c2cc(C(=O)OC)ncc2C1=O
Observable: IC50
Reported Result: 0.13
//
Compound: CNC1=CC(=O)c2c(cnc(C)c2C)C1=O [MANSOURAMYCIN A]
Observable: IC50
Reported Result: 19.1
